Biological target: hNPY2R (Homo sapiens)
Construct: expressed in transfected cells; host or cells: HEK-293 cells carrying a CRE-luciferase reporter gene
Sequence (P49146 whole entry): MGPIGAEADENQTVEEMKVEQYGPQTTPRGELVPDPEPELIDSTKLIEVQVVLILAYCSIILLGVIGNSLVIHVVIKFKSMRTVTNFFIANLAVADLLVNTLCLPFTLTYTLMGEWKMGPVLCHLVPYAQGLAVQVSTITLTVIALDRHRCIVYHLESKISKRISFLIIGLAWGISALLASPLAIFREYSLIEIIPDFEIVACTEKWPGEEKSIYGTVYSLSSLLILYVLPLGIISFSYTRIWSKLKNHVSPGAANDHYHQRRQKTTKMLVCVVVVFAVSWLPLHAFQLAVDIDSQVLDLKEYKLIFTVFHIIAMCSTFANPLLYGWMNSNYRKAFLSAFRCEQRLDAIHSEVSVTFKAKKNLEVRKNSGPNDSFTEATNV
Assay: hNPY2R CreLuc reporter gene assay in 0.5% and 100% plasma
Format: cell-based
Conditions: CreLuc reporter gene assay, 100% human plasma; read-out: hNPY2R 100% hP
Starred links: 1 amine or outer side, 2 acyl side, 3 side chain; linkers in the order of their positions; H or OH if unused. Non-standard residues stand in square brackets, D forms with d. Groups on a side chain read outwards from the residue. No end group written: not given here. *: point of attachment. C20 diacid = O=C(O)CCCCCCCCCCCCCCCCCCC(=O)*; C18 diacid = O=C(O)CCCCCCCCCCCCCCCCC(=O)*; γGlu = O=C(O)[C@H](CCC(=O)[*:2])N[*:1]; εLys = N[C@@H](CCCCN[*:1])C(=O)[*:2]; NMeR = CN[C@@H](CCCNC(=N)N)C(=O)O; AEEA = NCCOCCOCC(=O)O; Aib = CC(C)(N)C(=O)O; Ahx = NCCCCCC(=O)O
Each entry below carries its reported EC50.
property: EC50 (nM)

>>> experimental_value("H-Y[Aib]EGTFTSDYSI[Aib]LEKAAQ[Aib]AFVEWLIK([εLys-γGlu-γGlu-γGlu-γGlu-γGlu-γGlu-C20 diacid])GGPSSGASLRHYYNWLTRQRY-NH2 [Compound 136]")
64.7
>>> experimental_value("H-Y[Aib]EGTFTSDYSI[Aib]LEKQAQ[Aib]AFVQWLIK([AEEA-AEEA-γGlu-γGlu-γGlu-γGlu-γGlu-C20 diacid])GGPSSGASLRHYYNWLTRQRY-NH2 [Compound 112]")
27.6
>>> experimental_value("Y[Aib]EGTFTSDYSI[Aib]LEKQAQ[Aib]AFVQWLIK([AEEA-AEEA-γGlu-γGlu-γGlu-γGlu-C20 diacid])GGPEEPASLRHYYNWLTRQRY-NH2 [Compound 77]")
46.3
>>> experimental_value("H-Y[Aib]EGTFTSDYSI[Aib]LEKQAQ[Aib]AFVQWLIK([εLys-γGlu-γGlu-γGlu-γGlu-γGlu-C20 diacid])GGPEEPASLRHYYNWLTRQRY-NH2 [Compound 67]")
78.9
>>> experimental_value("H-Y[Aib]EGTFTSDYSI[Aib]LEKQAQ[Aib]AFVEWLIK([εLys-γGlu-γGlu-γGlu-γGlu-γGlu-γGlu-C20 diacid])GGPSSGLSLRHYYNWLTRQRY-NH2 [Compound 107]")
58.5
>>> experimental_value("H-Y[Aib]EGTFTSDYSI[Aib]LEKQAQ[Aib]AFVEWLIK([εLys-γGlu-γGlu-γGlu-γGlu-γGlu-γGlu-C20 diacid])GGPSSGATLRHYYNWLTRQRY-NH2 [Compound 91]")
53.1
>>> experimental_value("H-Y[Aib]EGTFTSDYSI[Aib]LEKQAQ[Aib]AFVEWLIK([AEEA-AEEA-γGlu-γGlu-γGlu-γGlu-γGlu-C20 diacid])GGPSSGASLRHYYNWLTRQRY-NH2 [Compound 229]")
27.2
>>> experimental_value("H-Y[Aib]EGTFTSDYSI[Aib]LEKQAQ[Aib]AFVEWLIK([εLys-γGlu-γGlu-γGlu-γGlu-γGlu-γGlu-C20 diacid])GGPSSGALLRHYYNWLTRQRY-NH2 [Compound 197]")
157
>>> experimental_value("H-Y[Aib]EGTFTSDYSI[Aib]LEKQAQ[Aib]AFVQWLIK([AEEA-AEEA-Glu-Glu-Glu-Glu-C18 diacid])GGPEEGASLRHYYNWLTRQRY-NH2 [Compound 177]")
115
>>> experimental_value("H-Y[Aib]EGTFTSDYSI[Aib]LEEQAQ[Aib]AFVEWLIK([εLys-γGlu-γGlu-γGlu-γGlu-C20 diacid])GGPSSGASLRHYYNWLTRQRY-NH2 [Compound 97]")
70.4
>>> experimental_value("H-Y[Aib]EGTFTSDYSI[Aib]LEKQAQ[Aib]AFVQWLIK([εLys-γGlu-γGlu-γGlu-γGlu-γGlu-γGlu-C20 diacid])GGPSEGASLRHYYNWLTRQ[NMeR]Y-NH2 [Compound 125]")
99.3
>>> experimental_value("H-Y[Aib]EGTFTSDYSI[Aib]LEKQAQ[Aib]AFVEWLIK([εLys-γGlu-γGlu-γGlu-γGlu-γGlu-γGlu-C20 diacid])GGPSYGASLRHYYNWLTRQRY-NH2 [Compound 232]")
36.8
>>> experimental_value("H-Y[Aib]EGTFTSDYSI[Aib]LEKQAQ[Aib]AFVEWLIK([γGlu-γGlu-γGlu-γGlu-γGlu-C20 diacid])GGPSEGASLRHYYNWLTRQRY-NH2 [Compound 289]")
56.3
>>> experimental_value("H-Y[Aib]EGTFTSDYSI[Aib]LEKQAQ[Aib]AFVEWLIK([εLys-γGlu-γGlu-γGlu-γGlu-γGlu-γGlu-C20 diacid])GGPSSGQS[Aib]RHYYNWLTRQRY-NH2 [Compound 44]")
24.5
>>> experimental_value("H-Y[Aib]EGTFTSDYSI[Aib]LEKQAQ[Aib]AFVEWLIK([Ahx-γGlu-γGlu-γGlu-γGlu-γGlu-C20 diacid])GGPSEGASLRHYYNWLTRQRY-NH2 [Compound 301]")
99.3
>>> experimental_value("H-Y[Aib]EGTFTSDYSI[Aib]LEKQAQ[Aib]AFVEWLIK([εLys-γGlu-γGlu-γGlu-γGlu-γGlu-γGlu-C20 diacid])GGPSSPESLRHYYNWLTRQRY-NH2 [Compound 73]")
107
>>> experimental_value("H-Y[Aib]EGTFTSDYSI[Aib]LEKQAQ[Aib]AFVQWLIK([γGlu-γGlu-γGlu-γGlu-γGlu-γGlu-C18 diacid])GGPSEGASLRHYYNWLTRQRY-NH2 [Compound 252]")
33.5
>>> experimental_value("H-Y[Aib]EGTFTSDYSI[Aib]LEKQAQ[Aib]AFVEWLIK([AEEA-AEEA-γGlu-γGlu-γGlu-γGlu-C18 diacid])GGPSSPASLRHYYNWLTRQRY-NH2 [Compound 158]")
39.9
>>> experimental_value("Y[Aib]EGTFTSDYSI[Aib]LEKQAQ[Aib]AFVEWLIK([AEEA-AEEA-γGlu-γGlu-γGlu-γGlu-C18 diacid])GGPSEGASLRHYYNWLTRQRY-NH2 [Compound 297]")
40.5
